Just for reference, paper PMC7518156 is where these values come from.

Experiment description: Pharmacokinetics of ERL and GEF in Wistar rats after four weeks consumption of water or flavoured water (plasma, UPLC-MS/MS, non-compartmental analysis)
Format: in vivo
Protocol conditions: male, Wistar, rat, plasma, po, 20 mg/kg, raw data sheet, from average profile; drug alone (water)
Method: Fifty healthy male Wistar rats weighing 250 ± 30 g were obtained from the animal house, College of Pharmacy, King Saud University, Riyadh, Saudi Arabia. Rats were randomly divided into ten cages (n = 5). […] Cmax and tmax were obtained from the corresponding plasma concentration–time curve (Figs. 1A and 1B). […] The area under the plasma concentration–time curve from time 0 to the last sampling time t, 48 h (AUC0–t) was calculated using the trapezoidal rule. […]
Endpoint: AUC (ng·h/mL)

P = C#Cc1cccc(Nc2ncnc3cc(OCCOC)c(OCCOC)cc23)c1 [ERL, Erlotinib]
Q = COc1cc2ncnc(Nc3ccc(F)c(Cl)c3)c2cc1OCCCN1CCOCC1 [GEF, Gefitinib]
Hi, I'm comparing P with Q and wondering which one has the bigger number for AUC. Any idea? Lab note: record the label of whichever item you select.
Q

---

Experiment description: Pharmacokinetics of ERL and GEF in Wistar rats after four weeks consumption of water or flavoured water (plasma, UPLC-MS/MS, non-compartmental analysis)
Format: in vivo
Protocol conditions: male, Wistar, rat, plasma, po, 20 mg/kg, raw data sheet, from average profile; +Pineapple FW; read-out: t½ (converted)
Endpoint: half-life (min)

a = COc1cc2ncnc(Nc3ccc(F)c(Cl)c3)c2cc1OCCCN1CCOCC1
b = C#Cc1cccc(Nc2ncnc3cc(OCCOC)c(OCCOC)cc23)c1
Hi, I'm comparing a with b and wondering which one has the bigger number for half-life. Any idea? Lab note: record the label of whichever item you select.
b
(b: 2130 min, a: 1070 min)

---

Experiment description: Pharmacokinetics of ERL and GEF in Wistar rats after four weeks consumption of water or flavoured water (plasma, UPLC-MS/MS, non-compartmental analysis)
Assay type: in vivo
Protocol conditions: male, Wistar, rat, plasma, oral, 20 mg/kg, PKSolver sheet; dose 20 mg/kg; +Pineapple
Endpoint: Cmax (ng/mL)
Please respond with the number in ng/mL and leave the unit unwritten.

Given item COc1cc2ncnc(Nc3ccc(F)c(Cl)c3)c2cc1OCCCN1CCOCC1 , the value recorded as its Cmax is 445

---

Experiment description: Pharmacokinetics of ERL and GEF in Wistar rats after four weeks consumption of water or flavoured water (plasma, UPLC-MS/MS, non-compartmental analysis)
Type: in vivo
Protocol conditions: male, Wistar, rat, plasma, oral, 20 mg/kg, PKSolver sheet; dose 20 mg/kg; +Pineapple; time 2 h; read-out: Conc
Endpoint: concentration at 2 h (ng/mL)

A = COc1cc2ncnc(Nc3ccc(F)c(Cl)c3)c2cc1OCCCN1CCOCC1
B = C#Cc1cccc(Nc2ncnc3cc(OCCOC)c(OCCOC)cc23)c1
Which gives the smaller concentration at 2 h number: A or B ? Lab note: record the label of whichever item you select.
B
(B: 120 ng/mL, A: 445 ng/mL)

---

Experiment description: Pharmacokinetics of ERL and GEF in Wistar rats after four weeks consumption of water or flavoured water (plasma, UPLC-MS/MS, non-compartmental analysis)
Type: in vivo
Protocol conditions: male, Wistar, rat, plasma, po, 20 mg/kg, rats, 20 mg/kg oral; four weeks berry FW; n = 5, mean (SD); read-out: tmax
Endpoint: Tmax (h)
Please respond with the number in h and leave the unit unwritten.

Given item COc1cc2ncnc(Nc3ccc(F)c(Cl)c3)c2cc1OCCCN1CCOCC1 , the value recorded as its Tmax is 2.33
